assay: ESI positive response factor (isotope-corrected peak area per molar concentration) in SFC/ESI/HRMS (area units per M); higher = higher ionization efficiency; conditions: 0.0875 µM;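 also: standards in acetonitrile/water run in triplicate on a zwitterionic HILIC column, CO2–methanol gradient containing 20 mmol/L ammonium acetate, postcolumn makeup flow, Orbitrap full-scan detection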
Each item that follows carries a reported ESI positive response factor.
Number only, no unit.

The reported ESI positive response factor of the molecule "CC(C)C[C@H](CN)CC(=O)O" was 1.96e+16

// CCCCC(CC)CNCC(CC)CCCC (stereo not drawn) : ESI positive response factor value = 9.48e+17

API: the following record is the query input.
response.value for CC(C)NCC(O)COc1ccc(C(=O)O)cc1 (stereo not drawn) (field: ESI positive response factor) = 1.65e+17

====

assay: ESI positive response factor (isotope-corrected peak area per molar concentration) in SFC/ESI/HRMS (area units per M); higher = higher ionization efficiency; conditions: 0.0875 µM
Catalogue of ESI positive response factor readings, one per entry.

Lab note: measured ESI positive response factor of "C#C[C@]1(O)CC[C@H]2[C@@H]3CCc4cc(O)ccc4[C@H]3CC[C@@]21C" was 1.85e+16

Continuing:
Item: CC(O)CN(CCO)CCO (stereo not drawn) [1-[N,N-Bis(2-hydroxyethyl)amino]-2-propanol] | ESI positive response factor: 3.24e+17

Record CC(=O)NCCNC(C)=O [N,N'-Ethylenebisacetamide] . Reported ESI positive response factor: 4.04e+16

ESI positive response factor reported for this compound "COCC(=O)N(c1c(C)cccc1C)N1CCOC1=O" : 1.57e+17

Reported ESI positive response factor of "COC=C(C(=O)OC)c1ccccc1COc1cccc(C(F)(F)F)n1" : 2.61e+17

What the record says about "CCOP(=O)(OCC)OC(=CCl)c1ccc(Cl)cc1Cl" : ESI positive response factor is 3.25e+17

"COC(=O)C1=CCCN(C)C1" yielded ESI positive response factor of 4.13e+17

====

Parameter ESI positive response factor: see the listing below.
experiment: ESI positive response factor (isotope-corrected peak area per molar concentration) in SFC/ESI/HRMS (area units per M); higher = higher ionization efficiency; details: 0.0175 µM
Keep the answer to the number alone.

// ESI positive response factor lookup, compound = "COC(=O)C1=CCCN(C)C1" , result: 4.44e+17

Sample CCCCC(=O)N(Cc1ccc(-c2ccccc2-c2nn[nH]n2)cc1)C(C(=O)O)C(C)C (stereo not drawn) ; ESI positive response factor observed: 2.86e+16

The reported ESI positive response factor of the compound "COc1ccc(C(=O)c2ccccc2)c(O)c1" was 1.73e+17

Briefly, ESI positive response factor measured for "Nc1ccc(S(=O)(=O)c2ccc(N)cc2)cc1" : 6.07e+16

The recorded ESI positive response factor for entry "CCOc1nc2cccc(C(=O)O)c2n1Cc1ccc(-c2ccccc2-c2nnn[nH]2)cc1" equals 5.17e+16

====

ESI positive response factor for assorted compounds
assay: ESI positive response factor (isotope-corrected peak area per molar concentration) in SFC/ESI/HRMS (area units per M); higher = higher ionization efficiency; settings: 0.244 µM

Completed entries (count: 3):
Briefly, ESI positive response factor measured for CN(C)C(=N)N=C(N)N [Metformin] : 1.01e+17

Quick note, ESI positive response factor for CSc1nnc(C(C)(C)C)c(=O)n1N [Metribuzin] landed at 1.52e+17

Reported ESI positive response factor for CN(C)C(=O)Nc1ccc(Cl)cc1 [Monuron] was 3.26e+16

***
// COc1ccc2c(c1)c(CC(=O)O)c(C)n2C(=O)c1ccc(Cl)cc1 [Indomethacin] : ESI positive response factor value = 1.53e+16

Query OCC[C@@H]1CCCC[NH2+]1 [2-Piperidineethanol] yields ESI positive response factor of 1.07e+17

Note to self: ESI positive response factor recorded for N=c1nc(N2CCCCC2)cc(N)n1O [Minoxidil] was 1.72e+17

The compound identified as CCSC(=O)N1CCCCCC1 [Molinate] registered its ESI positive response factor at 2e+16

get_value(item= CC(Oc1ccc(Oc2ncc(C(F)(F)F)cc2Cl)cc1)C(=O)O (stereo not given) [Haloxyfop] , readout=ESI positive response factor) returns 5.62e+15

Value of ESI positive response factor reported for the compound Cc1cc(=O)oc2cc(O)ccc12 [4-Methylumbelliferone] is 7.56e+16

Entry O=C(O)[C@@H]1C[C@@H](O)CN1 [L-Hydroxyprolin] , ESI positive response factor reported as 3.07e+15

The compound N=C(N=C(N)N)N1CCOCC1 [Moroxydine] showed ESI positive response factor equal to 1.97e+17

====

assay: ESI positive response factor (isotope-corrected peak area per molar concentration) in SFC/ESI/HRMS (area units per M); higher = higher ionization efficiency; conditions: 0.035 µM
reported_endpoint: ESI positive response factor
Form: value (number only, do not type unit).

Consider the following illustrative entries.
# compound "CCC1(c2ccccc2)C(=O)NCNC1=O" ; its ESI positive response factor = 1.09e+17

Entry "COC=C(C(=O)OC)c1ccccc1COc1cccc(C(F)(F)F)n1" — recorded ESI positive response factor = 2.82e+17

Entry "COCCOCCOCCO" ; ESI positive response factor = 9.98e+16

Lookup result for "O=c1[nH]sc2ccccc12" ; measured ESI positive response factor: 1.45e+16

Sure, the documented ESI positive response factor for "c1ccc2[nH]nnc2c1" is 7.96e+15

Briefly, ESI positive response factor measured for CCCCC(CC)CNCC(CC)CCCC (stereo unspecified) : 8.73e+17

***
Notebook: "OCCN(CCO)CCO" , ESI positive response factor read as 8.88e+16

The compound listed as "CCOC(=O)[C@H](CCc1ccccc1)N[C@@H](C)C(=O)N1CCC[C@H]1C(=O)O" shows ESI positive response factor equal to 3.29e+17

// ESI positive response factor lookup, compound = "CCNC(=O)[C@H](C)OC(=O)Nc1ccccc1" , result: 7.07e+16

Noted for CCOC(=O)CN1CCCC1=O [Ethyl 2-oxo-1-pyrrolidineacetate] : its ESI positive response factor reads 9.95e+16

====

assay: ESI positive response factor (isotope-corrected peak area per molar concentration) in SFC/ESI/HRMS (area units per M); higher = higher ionization efficiency; conditions: 0.175 µM
Listed compounds paired with reported ESI positive response factor
// return a plain number; no unit text

Field: example entries. Status: answers known.
Given item "OCCN1C[C@H](O)[C@@H](O)[C@H](O)[C@H]1CO" , the value recorded as its ESI positive response factor is 1.1e+16

"c1ccc2[nH]nnc2c1" yielded ESI positive response factor of 1.18e+16

Item: "CCOc1nc2cccc(C(=O)O)c2n1Cc1ccc(-c2ccccc2-c2nnn[nH]2)cc1" | ESI positive response factor: 8.2e+16

Per the records, this compound ( "COC(=O)N(OC)c1ccccc1COc1ccn(-c2ccc(Cl)cc2)n1" ) has ESI positive response factor equal to 4.73e+17

Kindly note the recorded ESI positive response factor for "CCOP(=O)(OCC)OC(=CCl)c1ccc(Cl)cc1Cl" , which is 2.98e+17

Reported ESI positive response factor ( "CC1(C)CC(O)CC(C)(C)N1" ) = 1.47e+17

ESI positive response factor for CC(CCl)OP(=O)(OC(C)CCl)OC(C)CCl (centres undefined) is 8.34e+17

GET /value?item= N#CN=C(N)N [Dicyandiamide] &field=ESI positive response factor returns 3.9e+15

API: the following record is the query input.
ESI positive response factor measured on "CCC1(c2ccccc2)C(=O)NCNC1=O" = 9.69e+16

====

assay: ESI positive response factor (isotope-corrected peak area per molar concentration) in SFC/ESI/HRMS (area units per M); higher = higher ionization efficiency; conditions: 1.75 µM
reported_endpoint: ESI positive response factor
Give a plain numeric answer without units written out.

As a guide, the following entries are already answered.
Quick note, ESI positive response factor for O=c1nc2[nH][nH]cc-2c(=O)[nH]1 [Oxypurinol] landed at 4.78e+14

The measured ESI positive response factor associated with Cc1cc2nc3c(=O)[nH]c(=O)nc-3n(CC(O)C(O)C(O)CO)c2cc1C (stereo not drawn) [Riboflavin] reads 3.53e+15

Shifting focus to the compound that follows.
Notebook: NC(N)=Nc1nc(CSCCC(N)=NS(N)(=O)=O)cs1 [Famotidin] , ESI positive response factor read as 3.72e+16

====

assay: ESI positive response factor (isotope-corrected peak area per molar concentration) in SFC/ESI/HRMS (area units per M); higher = higher ionization efficiency; details: 0.175 µM
reported_endpoint: ESI positive response factor
Lab note: record the figure alone, no unit after it.

The examples below pair each entry with its known result.
The compound CC1=C(C(=O)Nc2ccccc2)SCCO1 [Carboxin] showed ESI positive response factor equal to 9.93e+16

ESI positive response factor for CC(O)CN(CCO)CCO (stereo unspecified) [1-[N,N-Bis(2-hydroxyethyl)amino]-2-propanol] is 2.77e+17

Summary for this compound, Fc1ccc(Oc2ccnc3cc(Cl)cc(Cl)c23)cc1 [Quinoxyfen] : ESI positive response factor is 9.43e+17

So for CNCCC(Oc1ccc(C(F)(F)F)cc1)c1ccccc1 (stereo unspecified) [Fluoxetine] , the logged ESI positive response factor turned out to be 1.05e+17

Record C=CC(=O)OCC[N+](C)(C)C [[2-(Acryloyloxy)ethyl]trimethylammonium] , field ESI positive response factor: 5.79e+16

Field ESI positive response factor (entry CN(C)N/N=C1/N=CN=C1C(N)=O [Dacarbazine] ) reads 5.22e+15

Input O=C(O)C(c1ccccc1)C1CCCCN1 (stereo unspecified) [Ritalinic acid] . Output ESI positive response factor: 1.12e+17

// recorded ESI positive response factor for O=c1[nH]sc2ccccc12 [Benzisothiazolinone] : 1.36e+16

response.value for NC(N)=NC(N)=NCCc1ccccc1 [Phenformin] (field: ESI positive response factor) = 3.21e+17

ESI positive response factor recorded for this compound, C1CN(CCOCCN2CCOCC2)CCO1 [4,4'-(Oxydi-2,1-ethanediyl)bismorpholine] , is 3.18e+17

Continuing:
So, CC(O)CN(CC(C)O)CC(C)O (stereo unspecified) [triisopropanolamine] ? Its ESI positive response factor was 3.36e+17
